System: H9
Assay: Cytotoxicity against human H9 cells
Assay type: cell-based
Conditions: h9
Consider the following compounds; for each one, report its pIC50.
The read-out pIC50 is expressed as -log10 of concentration in moles per litre.

Ask | Report pIC50 for "Br.COc1cc2[nH]c3c(C)nccc3c2cc1Br"
Reply | 5.23

Ask | Supply pIC50 value. Item: CC1=NCCc2c1[nH]c1cc(O)ccc21.Cl [HARMALOL HYDROCHLORIDE]
Reply | 4.06

Ask | Recall and state the measured pIC50 for "COS(=O)(=O)O.Cc1nccc2c1[nH]c1ccccc12" .
Reply | 4.11

Ask | State its pIC50: "COc1cc2[nH]c3c(C)nccc3c2cc1Br"
Reply | 4.13

----------
System: H9
Assay: Cytotoxicity against human H9 cells
Assay type: cell-based
Settings: Homo sapiens, H9
readout-label: pIC50
Quick note: pIC50 means taking -log10 of the concentration in moles per liter.

Ask | Find pIC50 for "CCCCCCOc1ccc2c(c1)[nH]c1c(C)nccc12" on H9 and write it down.
Reply | 5.09

Ask | Under H9: report pIC50 of "Cc1[nH]ccc2c1[nH]c1cc(=O)ccc12" .
Reply | 3.97

Ask | Name the recorded pIC50 of CCCCCCCCC1NC(C(=O)O)Cc2c1[nH]c1ccccc21 (stereo not given) , assay system H9.
Reply | 4.22

Ask | Report pIC50 on H9 for this entry: "Br.CC1=NCCc2c1[nH]c1cc(O)ccc21"
Reply | 4.01

Ask | Fill in pIC50 for "CCCn1c2cc(OC)ccc2c2cc[n+](C)c(C)c21.[Br-]" tested with H9.
Reply | 4.27

Ask | # lookup: H9 pIC50, key = "COc1ccc2c3ccn(C)c(C)c-3nc2c1"
Reply | 4.15

Ask | Report value: pIC50, system: H9, compound: "COc1cc(C[C@H]2COC(=O)[C@@H]2Cc2ccc(O)c(OC)c2)ccc1O"
Reply | 4.66

Ask | Write down measured pIC50 (H9) for this compound. "Cc1nccc2c1[nH]c1cc(OC(C)C)ccc12"
Reply | 4.06

Ask | Tell me its pIC50 on H9: "COc1ccc2c3ccnc(C)c3n(C)c2c1"
Reply | 5.00

----------
Can you tell me selectivity ratio for the items I'm about to list?
Experiment: Therapeutic index, ratio of IC50 for human H9 cells to EC50 for HIV1
Type: cell-based
Conditions: H9 cells, read-out: Ratio IC50/EC50
# respond with the number and nothing more

Ask | Assign selectivity ratio to the following record: "COc1cc(C[C@H]2COC(=O)[C@@H]2Cc2ccc(OC(C)=O)c(OC)c2)ccc1OC(C)=O"
Reply | 7.1

Ask | Consider the molecule "COc1cc(C[C@H]2COC(=O)[C@@H]2Cc2ccc(O)c(OC)c2)ccc1O" . State its measured selectivity ratio.
Reply | 11

Ask | Hello, please tell me recorded selectivity ratio for this one: "Cc1nccc2c1[nH]c1ccccc12"
Reply | 10.4

Ask | Give selectivity ratio for the following molecule: "CCCCn1c2cc(OC)ccc2c2ccnc(C)c21"
Reply | 210

Ask | Supply recorded selectivity ratio for COc1ccc2c3c([nH]c2c1)C(C)N(N=O)CC3 (configuration not stated) here.
Reply | 8

Ask | Hello, please tell me recorded selectivity ratio for this one: "COc1ccc2c3ccnc(C)c3n(C)c2c1"
Reply | 9.2

Ask | Write down selectivity ratio measured for item "CCn1c2cc(OC)ccc2c2ccnc(C)c21"
Reply | 24.2

Ref: ChEMBL document CHEMBL1155732
